system: LPA1-initiated signaling in HER2-negative/PI3K//ERK/MEK/RAF/mTOR Wild-Type breast tumor cell samples; assay: impedance biosensor cell adhesion test, LPA1 agonist with RAS node inhibitors (Example 4); type: cell-based, human; details: sample C2868.01.6, cut-off 250
Think of -10 as a floor: if output value stands on it or above, it is true; beneath it, false.

| smiles text | assigned category |
| --- | --- |
| COc1c(OCCCN2CCOCC2)ccc2c1N=C(NC(=O)c1cnc(N)nc1)N1CCN=C21 | true |
| Cn1nccc1Nc1nccc(-c2ccn([C@H](CO)c3ccc(Cl)c(F)c3)c(=O)c2)n1 | false |
| CN(C)C1CCN(C(=O)c2ccc(NC(=O)Nc3ccc(-c4nc(N5CCOCC5)nc(N5CCOCC5)n4)cc3)cc2)CC1 | true |
| CCN(C)S(=O)(=O)Nc1ccc(F)c(C(=O)c2c[nH]c3ncc(-c4cnc(C5CC5)nc4)cc23)c1F | false |
| CC(=O)Nc1cccc(-n2c(=O)n(C3CC3)c(=O)c3c(Nc4ccc(I)cc4F)n(C)c(=O)c(C)c32)c1 | false |
| C[C@H](Nc1ccc2c(c1)OCCn1cc(N3C(=O)OC[C@H]3C(F)F)nc1-2)C(N)=O | false |

###

system: LPA1-initiated signaling in HER2-negative/PI3K//ERK/MEK/RAF/mTOR Wild-Type breast tumor cell samples; assay: impedance biosensor cell adhesion test, LPA1 agonist with RAS node inhibitors (Example 4); format: cell-based, human; details: sample C3957.01.6, cut-off 250
Think of -5 as a floor: if output value stands on it or above, it is Fulfilled; beneath it, Not fulfilled.

| smiles text | assigned category |
| --- | --- |
| CN(C)C1CCN(C(=O)c2ccc(NC(=O)Nc3ccc(-c4nc(N5CCOCC5)nc(N5CCOCC5)n4)cc3)cc2)CC1 | Fulfilled |
| CC(=O)Nc1cccc(-n2c(=O)n(C3CC3)c(=O)c3c(Nc4ccc(I)cc4F)n(C)c(=O)c(C)c32)c1 | Fulfilled |
| C[C@H](Nc1ccc2c(c1)OCCn1cc(N3C(=O)OC[C@H]3C(F)F)nc1-2)C(N)=O | Not fulfilled |
| CCN(C)S(=O)(=O)Nc1ccc(F)c(C(=O)c2c[nH]c3ncc(-c4cnc(C5CC5)nc4)cc23)c1F | Not fulfilled |
| COc1c(OCCCN2CCOCC2)ccc2c1N=C(NC(=O)c1cnc(N)nc1)N1CCN=C21 | Fulfilled |

###

tested on: LPA1-initiated signaling in HER2-negative/PI3K//ERK/MEK/RAF/mTOR Wild-Type breast tumor cell samples; test: impedance biosensor cell adhesion test, LPA1 agonist with RAS node inhibitors (Example 4); assay type: cell-based, human; design: unit not given here; details: sample C3101.01.6, cut-off 250
Think of 0 as a floor: if output value stands on it or above, it is MET; beneath it, NOT MET.

| smiles text | assigned category |
| --- | --- |
| CC(=O)Nc1cccc(-n2c(=O)n(C3CC3)c(=O)c3c(Nc4ccc(I)cc4F)n(C)c(=O)c(C)c32)c1 | MET |
| COc1c(OCCCN2CCOCC2)ccc2c1N=C(NC(=O)c1cnc(N)nc1)N1CCN=C21 | MET |
| CN(C)C1CCN(C(=O)c2ccc(NC(=O)Nc3ccc(-c4nc(N5CCOCC5)nc(N5CCOCC5)n4)cc3)cc2)CC1 | MET |
| Cn1nccc1Nc1nccc(-c2ccn([C@H](CO)c3ccc(Cl)c(F)c3)c(=O)c2)n1 | NOT MET |
| CCN(C)S(=O)(=O)Nc1ccc(F)c(C(=O)c2c[nH]c3ncc(-c4cnc(C5CC5)nc4)cc23)c1F | MET |

###

Recorded output value for the following compounds
tested on: LPA1-initiated signaling in HER2-negative/PI3K//ERK/MEK/RAF/mTOR Wild-Type breast tumor cell samples; test: impedance biosensor cell adhesion test, LPA1 agonist with RAS node inhibitors (Example 4); format: cell-based, human; conditions: sample C2697.01.4, cut-off 250

| smiles text | output value |
| --- | --- |
| CN(C)C1CCN(C(=O)c2ccc(NC(=O)Nc3ccc(-c4nc(N5CCOCC5)nc(N5CCOCC5)n4)cc3)cc2)CC1 | 103 |
| Cn1nccc1Nc1nccc(-c2ccn([C@H](CO)c3ccc(Cl)c(F)c3)c(=O)c2)n1 | 55 |
| CC(=O)Nc1cccc(-n2c(=O)n(C3CC3)c(=O)c3c(Nc4ccc(I)cc4F)n(C)c(=O)c(C)c32)c1 | 72 |
| CCN(C)S(=O)(=O)Nc1ccc(F)c(C(=O)c2c[nH]c3ncc(-c4cnc(C5CC5)nc4)cc23)c1F | −2 |
| C[C@H](Nc1ccc2c(c1)OCCn1cc(N3C(=O)OC[C@H]3C(F)F)nc1-2)C(N)=O | 31 |
| COc1c(OCCCN2CCOCC2)ccc2c1N=C(NC(=O)c1cnc(N)nc1)N1CCN=C21 | 103 |

###

Recorded output value for the following compounds
tested on: LPA1-initiated signaling in HER2-negative/PI3K//ERK/MEK/RAF/mTOR Wild-Type breast tumor cell samples; assay: impedance biosensor cell adhesion test, LPA1 agonist with RAS node inhibitors (Example 4); type: cell-based, human; set-up: unit not given here; settings: sample CL021.01.869, cut-off 250

| smiles text | output value |
| --- | --- |
| C[C@H](Nc1ccc2c(c1)OCCn1cc(N3C(=O)OC[C@H]3C(F)F)nc1-2)C(N)=O | −466 |
| CCN(C)S(=O)(=O)Nc1ccc(F)c(C(=O)c2c[nH]c3ncc(-c4cnc(C5CC5)nc4)cc23)c1F | 19 |
| Cn1nccc1Nc1nccc(-c2ccn([C@H](CO)c3ccc(Cl)c(F)c3)c(=O)c2)n1 | −226 |
| CN(C)C1CCN(C(=O)c2ccc(NC(=O)Nc3ccc(-c4nc(N5CCOCC5)nc(N5CCOCC5)n4)cc3)cc2)CC1 | 353 |
| CC(=O)Nc1cccc(-n2c(=O)n(C3CC3)c(=O)c3c(Nc4ccc(I)cc4F)n(C)c(=O)c(C)c32)c1 | −226 |
| COc1c(OCCCN2CCOCC2)ccc2c1N=C(NC(=O)c1cnc(N)nc1)N1CCN=C21 | −259 |

###

Recorded output value for the following compounds
test system: LPA1-initiated signaling in HER2-negative/PI3K//ERK/MEK/RAF/mTOR Wild-Type breast tumor cell samples; test: impedance biosensor cell adhesion test, LPA1 agonist with RAS node inhibitors (Example 4); assay type: cell-based, human; parameters: unit not given here; details: sample C3337.01.6, cut-off 250
property: output value

| compound | result |
| --- | --- |
| CCN(C)S(=O)(=O)Nc1ccc(F)c(C(=O)c2c[nH]c3ncc(-c4cnc(C5CC5)nc4)cc23)c1F [PLX7904] | 58 |
| Cn1nccc1Nc1nccc(-c2ccn([C@H](CO)c3ccc(Cl)c(F)c3)c(=O)c2)n1 [ravoxertinib] | 53 |
| CN(C)C1CCN(C(=O)c2ccc(NC(=O)Nc3ccc(-c4nc(N5CCOCC5)nc(N5CCOCC5)n4)cc3)cc2)CC1 [gedatolisib] | 336 |
| C[C@H](Nc1ccc2c(c1)OCCn1cc(N3C(=O)OC[C@H]3C(F)F)nc1-2)C(N)=O [GDC-0077] | 139 |
| COc1c(OCCCN2CCOCC2)ccc2c1N=C(NC(=O)c1cnc(N)nc1)N1CCN=C21 [Copanlisib, copanlisib] | 240 |
| CC(=O)Nc1cccc(-n2c(=O)n(C3CC3)c(=O)c3c(Nc4ccc(I)cc4F)n(C)c(=O)c(C)c32)c1 [trametinib] | 113 |

###

Recorded output value for the following molecules
tested on: LPA1-initiated signaling in HER2-negative/PI3K//ERK/MEK/RAF/mTOR Wild-Type breast tumor cell samples; assay: impedance biosensor cell adhesion test, LPA1 agonist with RAS node inhibitors (Example 4); format: cell-based, human; parameters: unit not given here; settings: sample C3507.01.5, cut-off 250
property: output value

| molecule | numeric result |
| --- | --- |
| CC(=O)Nc1cccc(-n2c(=O)n(C3CC3)c(=O)c3c(Nc4ccc(I)cc4F)n(C)c(=O)c(C)c32)c1 [trametinib] | −29 |
| COc1c(OCCCN2CCOCC2)ccc2c1N=C(NC(=O)c1cnc(N)nc1)N1CCN=C21 [Copanlisib, copanlisib] | 94 |
| C[C@H](Nc1ccc2c(c1)OCCn1cc(N3C(=O)OC[C@H]3C(F)F)nc1-2)C(N)=O [GDC-0077] | −58 |
| CCN(C)S(=O)(=O)Nc1ccc(F)c(C(=O)c2c[nH]c3ncc(-c4cnc(C5CC5)nc4)cc23)c1F [PLX7904] | 46 |
| CN(C)C1CCN(C(=O)c2ccc(NC(=O)Nc3ccc(-c4nc(N5CCOCC5)nc(N5CCOCC5)n4)cc3)cc2)CC1 [gedatolisib] | 70 |
| Cn1nccc1Nc1nccc(-c2ccn([C@H](CO)c3ccc(Cl)c(F)c3)c(=O)c2)n1 [ravoxertinib] | −24 |

Reference for the values: patent US20220412957A1
